Test: Pharmacokinetic (PK) evaluation in mice
Format: in vivo, Balb/c mice
Settings: 100 mg/kg i.p., mice
Protocol: Blood samples were collected via terminal heart puncture at 0.5, 1, 2, 4, 8, 12, 24 and 48 h for p.o. administration and 0.083, 0.25, 0.5, 1, 2, 4, 8, 12, 24 and 48 h for i.p. and i.v. administration. 3 mice per time point were used. For ad libitum administration, blood samples were collected after 7 days using five mice per group. […] PND-1186 content was determined by high-performance liquid chromatography (HPLC) and mass spectroscopy analyses (see Supplemental Methods).
quantityMeasured: Cmax
State the result as a value with its unit after it.

Q) Check the records and state Cmax for CNC(=O)c1ccccc1Nc1cc(Nc2ccc(N3CCOCC3)cc2OC)ncc1C(F)(F)F [PND-1186]
A) 117 µM
